- Target: MBP-FoxP3dN (Mus musculus, UniProt Q99JB6 188-423)
- Sequence: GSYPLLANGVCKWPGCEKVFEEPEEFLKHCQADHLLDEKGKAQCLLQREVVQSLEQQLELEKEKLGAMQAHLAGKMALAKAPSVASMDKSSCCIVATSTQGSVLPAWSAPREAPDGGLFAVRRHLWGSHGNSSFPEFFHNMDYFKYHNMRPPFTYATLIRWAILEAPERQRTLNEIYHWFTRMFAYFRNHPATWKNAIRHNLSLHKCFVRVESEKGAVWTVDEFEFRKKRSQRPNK
- Run Description: PD-seq (MBP pull-down with sequencing); 20 mM Tris-HCl pH 7.5, 100 mM NaCl, 1.5 mM MgCl2, 0.4 uM protein, 0.1 uM dsDNA library, 30 min, room temperature, amylose pull-down; high values mean tight binding
- Condition Description: protein: recombinant; tags: His6-MBP; chain copies: 2; dsDNA, one strand shown
Whole data set: some 16,000 sequences, median “rpm ratio (pull-down/input)” near 0.5, cut for the highest 2% near 5.5. The sample holds the highest values, similar sequences and a random draw of the others, so the mix is not that of the screen.
Observation Type: binding signal

- Monomer Sequence: "GATGATTGTTCTCCCAGCTGATGAATTTCGGAGGTCGAGTAAACAAATTTTCCTAATCTTTCTGTTCAAGCGCCATCTAC"
  Observation Type: "binding signal"
  Endpoint Result: "0.25 RPM ratio (pull-down/input)"
- Monomer Sequence: "GATGATTGTTCTCCCAGCTGATGAATTTTGTATTTCGAGTAAACAAATTTTCCTAATCTTTCTGTTCAAGCGCCATCTAC"
  Observation Type: "binding signal"
  Endpoint Result: "5.33 RPM ratio (pull-down/input)"
- Monomer Sequence: "GATGATTGTTCTCCCAGCTGATGAATTCTGTATCTCGAGTAAACAAATTTTCCTAATCTTTCTGTTCAAGCGCCATCTAC"
  Observation Type: "binding signal"
  Endpoint Result: "4.93 RPM ratio (pull-down/input)"

Now for a further sequence.
# lookup: GATGATTGTTCTCCCAGCTGATGAATTGTGCACCTCGAGTAAACAAATTTTCCTAATCTTTCTGTTCAAGCGCCATCTAC on MBP-FoxP3dN (Mus musculus, UniProt Q99JB6 188-423), binding signal = 2.92 RPM ratio (pull-down/input)
